Tested on: T-cell clones
Experiment: Generation and drug-specificity testing of T-cell clones
Assay type: cell-based, human
Conditions: priming assay and/or T-cell clones
Measured Attribute: Overall immunogenicity call in T-cell assays

| Molecule | System Under Test | Test Value |
| --- | --- | --- |
| CC(COc1ccccc1)N(CCCl)Cc1ccccc1 (centres unmarked) | T-cell clones | no false positives |
| CN(C)CCOC(c1ccccc1)c1ccccc1 [Diphenhydramine] | T-cell clones | no false positives |
| COc1cc([C@@H]2c3cc4c(cc3[C@@H](O[C@@H]3O[C@@H]5CO[C@@H](C)O[C@H]5[C@H](O)[C@H]3O)[C@H]3COC(=O)[C@H]23)OCO4)cc(OC)c1O [Etoposide] | T-cell clones | no false positives |

----------
Test system: PBMC
Assay: Inhibition of mitogen-induced (PHA-P) PBMC proliferation
Type: cell-based, human
Conditions: PBMC from 3 healthy donors; compound 48 h, then PHA-P 10 µg/ml 24 h; [3H]-thymidine; listed as iproniazid; read-out: IC50, inhibition of mitogen-driven PBMC proliferation
pIC50: −log10 of the molar value.
Measured Attribute: pIC50

Item under review: CC(C)NNC(=O)c1ccncc1 [Iproniazid] . Reported pIC50?
≤ 4.30

----------
# Lookup of reported IC50 keyed by entry
Tested on: PBMC
Assay: Inhibition of mitogen-induced (PHA-P) PBMC proliferation
Type: cell-based, human
Conditions: Homo sapiens, PBMC, PBMC from 3 healthy donors; compound 48 h, then PHA-P 10 µg/ml 24 h; [3H]-thymidine; read-out: IC50, inhibition of mitogen-driven PBMC proliferation
Expressed in µM, but write only the number.

Here is how some molecules turned out for IC50.
| Molecule | Measurement Unit | Test Value |
| --- | --- | --- |
| COc1cc([C@@H]2c3cc4c(cc3[C@@H](O[C@@H]3O[C@@H]5CO[C@@H](C)O[C@H]5[C@H](O)[C@H]3O)[C@H]3COC(=O)[C@H]23)OCO4)cc(OC)c1O [Etoposide] | µM | 20 |
| NC1=CC(=N\c2ccc(N)cc2)/C(N)=CC/1=N/c1ccc(N)cc1 [Bandrowski's base] | µM | 5 |
| O=C1CN(/N=C/c2ccc([N+](=O)[O-])o2)C(=O)N1 [Nitrofurantoin] | µM | 15 |
| CN(C)/N=N/c1[nH]cnc1C(N)=O [Dacarbazine] | µM | 15 |

Then there is this molecule:
# value lookup — system PBMC, readout IC50, item CCN1CCN(C(=O)N[C@@H](C(=O)N[C@@H]2C(=O)N3[C@@H]2SC(C)(C)[C@@H]3C(=O)O)c2ccccc2)C(=O)C1=O [Piperacillin]
1000
